Tested on: A549
Assay: Antiproliferative activity against human A549 cells assessed as cell viability after 48 hrs by SRB assay
Assay type: functional, cell-based
Details: A549, 48 h
READOUT TYPE: IC50

Examples with answers:
{"SMILES NOTATION": "COc1ccc(/C=C/c2c(/C=C/[N+](=O)[O-])cc(OC)c(OC)c2OC)cc1", "IC50": "40.4 µM"}
{"SMILES NOTATION": "Oc1ccc(/C=C/c2cc(O)cc(O)c2)cc1", "IC50": "44.7 µM"}

Note: attention shifts to another entry.
// returns reported IC50 for input "COc1cc(/C=C/[N+](=O)[O-])c(/C=C/c2ccc(-c3ccccc3)cc2)c(OC)c1OC"
44.4 µM

====

Tested on: A549
Experiment: Antiproliferative activity against human A549 cells assessed as cell viability after 48 hrs by SRB assay
Format: functional, cell-based
Settings: A549, 48 h
Attribute: pIC50
A value of pIC50 is the negative decimal logarithm of a concentration given in moles per litre.

Examples with answers:
{"SMILES NOTATION": "COc1cc(/C=C/[N+](=O)[O-])c(/C=C/c2ccc3c(c2)OCO3)c(OC)c1OC", "SYSTEM TESTED": "A549", "pIC50": 4.79}
{"SMILES NOTATION": "COc1cc(/C=C/c2c(/C=C/[N+](=O)[O-])cc(OC)c(OC)c2OC)cc(OC)c1OC", "SYSTEM TESTED": "A549", "pIC50": 4.57}
{"SMILES NOTATION": "COc1cc(/C=C/c2c(/C=C/[N+](=O)[O-])cc(OC)c(OC)c2OC)cc(OC)c1", "SYSTEM TESTED": "A549", "pIC50": 4.82}

// returns reported pIC50 for input "COc1cc(/C=C/[N+](=O)[O-])c(/C=C/c2ccc(Br)cc2)c(OC)c1OC"
4.39

// returns reported pIC50 for input "COc1cc(/C=C/[N+](=O)[O-])c(/C=C/c2ccc(C)cc2)c(OC)c1OC"
4.72

// returns reported pIC50 for input "COc1cc(/C=C/[N+](=O)[O-])c(/C=C/c2ccc(Cl)cc2)c(OC)c1OC"
4.64

// returns reported pIC50 for input "COc1cc(/C=C/[N+](=O)[O-])c(/C=C/c2ccccc2)c(OC)c1OC"
4.54

// returns reported pIC50 for input "COc1cc(/C=C/[N+](=O)[O-])c(/C=C/c2ccc(F)cc2)c(OC)c1OC"
4.44

// returns reported pIC50 for input "COc1cc(/C=C/[N+](=O)[O-])c(/C=C/c2ccc3ccccc3c2)c(OC)c1OC"
4.23

====

Test system: HeLa
Assay: Antiproliferative activity against human HeLa cells assessed as cell viability after 48 hrs by SRB assay
Format: functional, cell-based
Conditions: Homo sapiens, HeLa, 48 h
pIC50: −log10 of the molar value.
Could you label it t if measured pIC50 is 5 or higher, and f otherwise?

Check out these entries, answers already filled in.
{"SMILES NOTATION": "COc1cc(/C=C/[N+](=O)[O-])c(/C=C/c2ccc(C)cc2)c(OC)c1OC", "LABEL VALUE": "t"}
{"SMILES NOTATION": "COc1cc(/C=C/[N+](=O)[O-])c(/C=C/c2ccc3ccccc3c2)c(OC)c1OC", "LABEL VALUE": "f"}
{"SMILES NOTATION": "COc1cc(/C=C/[N+](=O)[O-])c(/C=C/c2ccccc2)c(OC)c1OC", "LABEL VALUE": "t"}

Hi, just wondering whether "COc1cc(/C=C/[N+](=O)[O-])c(/C=C/c2ccc3c(c2)OCO3)c(OC)c1OC" shows pIC50 of 5 or higher.
t

Hi, just wondering whether "Oc1ccc(/C=C/c2cc(O)cc(O)c2)cc1" shows pIC50 of 5 or higher.
f
